# System: Salmonella enterica serovar Typhimurium TA98
# Measurement Protocol: Salmonella/microsome assay, TA98
# Condition Notes: −S9, 30 µM
# Protocol: Salmonella enterica serovar Typhimurium (S. typhimurium) strains TA97, TA98, TA100, TA104 and TA102 from the authors’ stock were used as described in the mutagenicity assay. To determine the cytotoxic effects, after 30 min pre-incubation, the assay mixtures were diluted in 0.9% NaCl (w/v) to obtain a suspension containing 2 × 10^2 cells/mL. […] The plates were then incubated at 37 °C for 24 h and the colonies counted. All the experiments were conducted in triplicate and were repeated at least twice. […]
Please provide measured revertant His+ colonies TA98 for the entries that follow.

Query: State the recorded revertant His+ colonies TA98 for this entry: CC(=O)Nc1ccc(Cl)cc1C(F)(F)C(=O)NCC[C@@H]1C[C@H](CC(=O)OC(C)(C)C)OC(C)(C)O1 [Compound 13c]
Reply: 21 ± 3

Query: What do you have for CC(=O)Nc1ccc(Br)cc1C(F)(F)C(=O)NCC[C@@H]1C[C@H](CC(=O)OC(C)(C)C)OC(C)(C)O1 [Compound 13d] ?
Reply: 25 ± 1

Query: What do you have for CC(=O)Nc1ccc(C)cc1C(F)(F)C(=O)NCC[C@@H]1C[C@H](CC(=O)OC(C)(C)C)OC(C)(C)O1 [Compound 13b] ?
Reply: 21 ± 5

Query: What do you have for CC(=O)Nc1ccccc1C(F)(F)C(=O)NCC[C@@H]1C[C@H](CC(=O)OC(C)(C)C)OC(C)(C)O1 [Compound 13a] ?
Reply: 31 ± 8

====

# System: Salmonella enterica serovar Typhimurium TA98
# Measurement Protocol: Salmonella/microsome assay, TA98
# Condition Notes: −S9, 300 µM
Please provide measured revertant His+ colonies TA98 for the entries that follow.
Output spec: single numeric token, no unit.

Query: Form entry - test system: Salmonella enterica serovar Typhimurium TA98; read-out: revertant His+ colonies TA98; compound: CC(=O)Nc1ccccc1C(F)(F)C(=O)NCC[C@@H]1C[C@H](CC(=O)OC(C)(C)C)OC(C)(C)O1 [Compound 13a]
Reply: 52

Query: What do you have for CC(=O)Nc1ccc(C)cc1C(F)(F)C(=O)NCC[C@@H]1C[C@H](CC(=O)OC(C)(C)C)OC(C)(C)O1 [Compound 13b] ?
Reply: 22

Query: What do you have for CC(=O)Nc1ccc(Br)cc1C(F)(F)C(=O)NCC[C@@H]1C[C@H](CC(=O)OC(C)(C)C)OC(C)(C)O1 [Compound 13d] ?
Reply: 27

Query: What do you have for CC(=O)Nc1ccc(Cl)cc1C(F)(F)C(=O)NCC[C@@H]1C[C@H](CC(=O)OC(C)(C)C)OC(C)(C)O1 [Compound 13c] ?
Reply: 21

====

# Tested on: Salmonella enterica serovar Typhimurium TA97
# Measurement Protocol: Salmonella/microsome assay, TA97
# Condition Notes: −S9, 3 µM
Measurement Label: revertant His+ colonies TA97

Query: State the recorded revertant His+ colonies TA97 for this entry: CC(=O)Nc1ccc(Cl)cc1C(F)(F)C(=O)NCC[C@@H]1C[C@H](CC(=O)OC(C)(C)C)OC(C)(C)O1 [Compound 13c]
Reply: 81 ± 6

Query: What do you have for CC(=O)Nc1ccc(C)cc1C(F)(F)C(=O)NCC[C@@H]1C[C@H](CC(=O)OC(C)(C)C)OC(C)(C)O1 [Compound 13b] ?
Reply: 69 ± 12

Query: What do you have for CC(=O)Nc1ccccc1C(F)(F)C(=O)NCC[C@@H]1C[C@H](CC(=O)OC(C)(C)C)OC(C)(C)O1 [Compound 13a] ?
Reply: 78 ± 6

Query: What do you have for CC(=O)Nc1ccc(Br)cc1C(F)(F)C(=O)NCC[C@@H]1C[C@H](CC(=O)OC(C)(C)C)OC(C)(C)O1 [Compound 13d] ?
Reply: 119 ± 8

====

# System: Salmonella enterica serovar Typhimurium TA104
# Measurement Protocol: Salmonella/microsome assay, TA104
# Condition Notes: +S9, 3 µM
Measurement Label: revertant His+ colonies TA104
Output spec: single numeric token, no unit.

Query: State the recorded revertant His+ colonies TA104 for this entry: CC(=O)Nc1ccc(C)cc1C(F)(F)C(=O)NCC[C@@H]1C[C@H](CC(=O)OC(C)(C)C)OC(C)(C)O1 [Compound 13b]
Reply: 355

Query: What do you have for CC(=O)Nc1ccc(Cl)cc1C(F)(F)C(=O)NCC[C@@H]1C[C@H](CC(=O)OC(C)(C)C)OC(C)(C)O1 [Compound 13c] ?
Reply: 384

Query: What do you have for CC(=O)Nc1ccc(Br)cc1C(F)(F)C(=O)NCC[C@@H]1C[C@H](CC(=O)OC(C)(C)C)OC(C)(C)O1 [Compound 13d] ?
Reply: 490

Query: What do you have for CC(=O)Nc1ccccc1C(F)(F)C(=O)NCC[C@@H]1C[C@H](CC(=O)OC(C)(C)C)OC(C)(C)O1 [Compound 13a] ?
Reply: 390

====

# Test system: Salmonella enterica serovar Typhimurium TA102
# Condition Notes: −S9, 15 µM
Measurement Label: revertant His+ colonies TA102

Query: State the recorded revertant His+ colonies TA102 for this entry: CC(=O)Nc1ccc(Cl)cc1C(F)(F)C(=O)NCC[C@@H]1C[C@H](CC(=O)OC(C)(C)C)OC(C)(C)O1 [Compound 13c]
Reply: 386 ± 35

Query: What do you have for CC(=O)Nc1ccc(C)cc1C(F)(F)C(=O)NCC[C@@H]1C[C@H](CC(=O)OC(C)(C)C)OC(C)(C)O1 [Compound 13b] ?
Reply: 393 ± 18

Query: What do you have for CC(=O)Nc1ccccc1C(F)(F)C(=O)NCC[C@@H]1C[C@H](CC(=O)OC(C)(C)C)OC(C)(C)O1 [Compound 13a] ?
Reply: 435 ± 22
